# assay: Single-dose trial, plasma pharmacokinetics
# Format: in vivo, human
# measurement_conditions: both sexes, human, plasma; single-dose trial, 400 mg oral, fasting
readout_kind: MRT last (h)
Answers are plain numbers, in h.

Could you please provide reported MRT last for CC(C)=CCC[C@](C)(OC1O[C@H](CO)[C@@H](O)[C@H](O)[C@H]1O)[C@H]1CC[C@]2(C)[C@@H]1[C@H](O)C[C@@H]1[C@@]3(C)CC[C@H](O)C(C)(C)[C@@H]3CC[C@]12C (stereo partly shown) [CK] ? Thanks! 11.9

====

# assay: Single-dose trial, plasma pharmacokinetics
# Format: in vivo, human
# measurement_conditions: both sexes, human, plasma; single-dose trial, 100 mg oral, fasting
readout_kind: MRT last (h)
One number for each entry, in h.

Could you please provide reported MRT last for CC(C)=CCC[C@](C)(OC1O[C@H](CO)[C@@H](O)[C@H](O)[C@H]1O)[C@H]1CC[C@]2(C)[C@@H]1[C@H](O)C[C@@H]1[C@@]3(C)CC[C@H](O)C(C)(C)[C@@H]3CC[C@]12C (stereo partly shown) ? Thanks! 11.4
